Biological target: Human DR5-ECD long form polypeptide (human)
Assay: phage competition ELISA (Comp/DR5 ECD)
This section presents binders with their documented pIC50 values.
Please keep in mind that pIC50 is minus log10 of the molar concentration; only the number is needed.

1) GEVCLTSCERLR (phage-displayed) [LB882]	7.83
2) CVAMTSCDKLRLCQLL (phage-displayed) [2Hd7-20]	7.54
3) GEVCLTLCSRLR (phage-displayed) [LB934]	8.52

For the next question, use this binder.
Q: Give me measured pIC50, please, for this binder: QEVCMTSCDKLMKANWMAAM (phage-displayed) [LB867]
A: 7.53

These entries and their values trace back to patent US20070066800A1.
